- Target entity: T1, LNX2_2, Q8N448
- T1 sequence (Q8N448 334-432, limits assumed, looked up): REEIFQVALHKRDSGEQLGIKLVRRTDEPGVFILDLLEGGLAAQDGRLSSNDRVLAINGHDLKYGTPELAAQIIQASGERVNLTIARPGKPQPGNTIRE
- Test: holdup assay
- Parameters: key: below the threshold = too weak to quantify, mostly under pKd 3.1 to 4
- Recorded conditions: plain residues with an end cap or a label only (N-terminal biotin on a linker: ado-ado)
Readout type: pKd

Binder: KSRPENGTVC [TMEM178B, H3BS89]
Measured: 4.32
//
Binder: KKTPVSRSHL [SLC22A3, O75751]
Measured: below the threshold
//
Binder: RDYTQSSSSL [GRM5, P41594]
Measured: below the threshold
//
Binder: DLLGGGSDSI [TNRC6B, Q9UPQ9]
Measured: below the threshold

Here is the next item to consider.
Query: Which pKd is listed for SSSVNVSSNL [CXCR1, P25024] ?
Result: below the threshold
